system: Escherichia coli; experiment: Antibacterial activity against Escherichia coli BL21(DE3); type: functional
Field: MIC. Provide a value for each of the molecules that follow.
Give bare numbers, in µg/mL.

NC[C@H]1O[C@H](O[C@H]2[C@H](O)[C@@H](O[C@H]3O[C@H](CO)[C@@H](O)[C@H](N)[C@H]3O)[C@H](N)C[C@@H]2N)[C@H](N)C[C@@H]1O [TOBRAMYCIN]: 6
NC[C@H]1O[C@H](O[C@H]2[C@H](O[C@@H]3O[C@H](CO)[C@@H](O)[C@H]3O)[C@@H](O)[C@H](N)C[C@@H]2N)[C@H](N)[C@@H](O)[C@@H]1O [RIBOSTAMYCIN]: 12
NC[C@@H]1O[C@H](O[C@H]2[C@@H](O)[C@H](O[C@@H]3[C@@H](O)[C@H](N)C[C@H](N)[C@H]3O[C@H]3O[C@H](CN)[C@@H](O)[C@H](O)[C@H]3N)O[C@@H]2CO)[C@H](N)[C@@H](O)[C@@H]1O [FRAMYCETIN]: 12
NC[C@H]1O[C@H](O[C@H]2[C@H](O)[C@@H](O)[C@H](N)C[C@@H]2N)[C@H](N)[C@@H](O)[C@@H]1O [NEAMINE]: 96
NCC[C@H](O)C(=O)N[C@@H]1C[C@H](N)[C@@H](O[C@H]2O[C@H](CN)[C@@H](O)[C@H](O)[C@H]2O)[C@H](O)[C@H]1O[C@H]1O[C@H](CO)[C@@H](O)[C@H](N)[C@H]1O [AMIKACIN]: 12

// below: MIC requested for another molecule
Given the entry NC[C@@H]1O[C@@H](O[C@H]2[C@H](O)[C@@H](O[C@H]3O[C@H](CO)[C@@H](O)[C@H](N)[C@H]3O)[C@H](N)C[C@@H]2N)[C@@H](O)[C@H](O)[C@H]1O [KANAMYCIN A] , report its measured MIC.
12
